parameter-measured: melting point

C=C(c1cc(C(C)(C)C)cc2c1CCC2(C)C)c1sccc1C=O [Example 11] | 148 to 150 °C

INPUT: Entry C=C(c1cc(C(C)(C)C)cc2c1CCC2(C)C)c1sccc1C(=O)O [Example 12] has what melting point?
OUTPUT: 148 to 150 °C

INPUT: Entry C=C(c1ccsc1C(=O)O)c1cc(C(C)(C)C)cc2c1CCC2(C)C [Example 10] has what melting point?
OUTPUT: 146 to 148 °C

INPUT: Entry C=C(c1ccsc1C=O)c1cc(C(C)(C)C)cc2c1CCC2(C)C [Example 9] has what melting point?
OUTPUT: 99 to 100 °C
